Recorded measurements of Int. 2 (%): inhibition rate of phosphate absorption, one per entry
- System: phosphate absorption from the intestinal tract
- assay.explanation: Action of inhibiting increase in blood radioactivity in rat orally loaded with 32P phosphate (phosphate absorption inhibitory action)
- Assay type: in vivo
- assay.setup: male Wistar rats, 3 mg/kg oral, 32P phosphate load 5 min after dosing, serum radioactivity AUC0-30 min
reported.metric: Int. 2 (%): inhibition rate of phosphate absorption

{"compound.smiles": "CCC(CC)N(CCN(C)C(=O)CCC(=O)O)Cc1cccc(C(=O)Nc2sc3c(c2C(=O)Nc2ccc(CCc4ccc(C(=O)O)cc4)cc2)CCCC3)c1.Cl", "comparison.operator": ">", "val": 60}
{"compound.smiles": "CCC(CC)N(CCN(C)C(=O)OCC(=O)O)Cc1cccc(C(=O)Nc2sc3c(c2C(=O)Nc2ccc(CCc4ccc(C(=O)O)cc4)cc2)CCCC3)c1.Cl", "comparison.operator": "=", "val": 53}
{"compound.smiles": "CCC(CC)N(CCN(CCOC)C(=O)CCC(=O)O)Cc1cccc(C(=O)Nc2sc3c(c2C(=O)Nc2ccc(CCc4ccc(C(=O)O)cc4)cc2)CCCC3)c1.Cl", "comparison.operator": "=", "val": 56}
{"compound.smiles": "CCC(CC)N(CCCN(C)C(=O)CCC(=O)O)Cc1cccc(C(=O)Nc2sc3c(c2C(=O)Nc2ccc(CCc4ccc(C(=O)O)cc4)cc2)CCCC3)c1.Cl", "comparison.operator": "=", "val": 59}

// data source = patent US9062032B2
